meta.source: paper PMC12637173

# Test system: NCI‐H292 (EGFRwt)
# Experiment Description: Cell viability by MTT assay, NCI-H292
# Run Parameters: Homo sapiens, NCI-H292, 24 h, read-out: cytotoxic activity, NCI-H292 (EGFRw.t.)
pIC50: −log10 of the molar value.

Smiles: C=CC(=O)Nc1ccc2ncc(NC(=O)Nc3ccccc3)nc2c1
Measured On: NCI‐H292 (EGFRwt)
pIC50: 4.74
//
Smiles: CN(C)C/C=C/C(=O)Nc1ccc2ncc(NC(=O)Nc3ccccc3)nc2c1
Measured On: NCI‐H292 (EGFRwt)
pIC50: 4.79

###

# Tested on: PC‐9 (EGFRL858R)
# Experiment Description: Cell viability by MTT assay, PC-9
# Run Parameters: read-out: CC50 stated in figure legend; PC‐9; CC50 given as concentration used in flow cytometry; assay and time not stated
Attribute Measured: CC50 (nM)

Compound: COc1ccc(/C=C\c2cc(OC)c(OC)c(OC)c2)cc1O [combretastatin A4, reference compound]
Attribute Measured: CC50
Value: 100
